This listing pairs binders with measured hCD71.
Biological target: T1, recombinant biotinylated CD71 extracellular domain (Sino Biologics) with an N-terminal 6His tag (human, UniProt P02786 89-760, biotinylated (sites not given))
T1 construct: extracellular domain; also called hCD71; huCD71
T1 sequence (P02786 other isoform, or with tags, fused parts or gaps): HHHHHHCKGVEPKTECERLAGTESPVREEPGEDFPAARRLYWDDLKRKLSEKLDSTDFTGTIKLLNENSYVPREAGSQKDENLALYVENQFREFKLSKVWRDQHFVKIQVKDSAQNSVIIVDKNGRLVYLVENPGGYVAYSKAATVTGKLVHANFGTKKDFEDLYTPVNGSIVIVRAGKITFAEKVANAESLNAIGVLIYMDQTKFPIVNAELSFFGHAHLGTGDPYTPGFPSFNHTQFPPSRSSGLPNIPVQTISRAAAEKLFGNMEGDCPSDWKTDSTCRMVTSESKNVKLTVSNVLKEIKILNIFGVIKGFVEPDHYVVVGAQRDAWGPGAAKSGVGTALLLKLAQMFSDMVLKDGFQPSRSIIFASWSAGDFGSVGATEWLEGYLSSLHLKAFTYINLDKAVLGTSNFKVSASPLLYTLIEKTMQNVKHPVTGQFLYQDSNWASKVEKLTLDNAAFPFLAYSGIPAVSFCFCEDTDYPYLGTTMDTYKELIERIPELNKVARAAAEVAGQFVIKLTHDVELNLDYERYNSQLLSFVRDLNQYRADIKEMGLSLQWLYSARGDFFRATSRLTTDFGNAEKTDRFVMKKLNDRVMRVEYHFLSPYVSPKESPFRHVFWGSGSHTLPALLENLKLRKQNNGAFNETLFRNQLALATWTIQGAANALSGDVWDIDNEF
Assay: screening ELISA
Experimental: To screen for FN3 domains that specifically bind CD71, streptavidin-coated Maxisorp plates (Nunc catalog 436110) were blocked for 1 hour in Starting Block T20 (Pierce) and then coated with biotinylated CD71 (using same antigen as in panning) or negative controls (an unrelated Fc-fused recombinant protein and human serum albumin) for 1 hour. Plates were rinsed with TBST and diluted lysate was applied to plates for 1 hour. […]
READOUT_NAME: hCD71

{"BINDER": "SEQ ID NO 42 (designed binder, FN3 domain) MLPAPKNLVVSRVTEDSARLSWTAPDAAFDSFTIEYYESFYGGEAIVLTVPGSERSYDLTGLKPGTEYYVSIYGVKGGWLSRPLSAIFTT", "MEAS_VALUE": "2.83e+06"}
{"BINDER": "SEQ ID NO 45 (designed binder, FN3 domain) MLPAPKNLVVSRVTEDSARLSWTAPDAAFDSFAIYYLESYPEGEAIVLTVPGSERSYDLTGLKPGTEYWVGIDGVKGGTWSSPLSAIFTT", "MEAS_VALUE": "1.93e+06"}
{"BINDER": "SEQ ID NO 41 (designed binder, FN3 domain) MLPAPKNLVISRVTEDSARLSWTAPDAAFDSFFIYYIESYPAGEAIVLTVPGSERSYDLTGLKPGTEYWVGIDGVKGGRWSTPLSAIFTT", "MEAS_VALUE": "4.27e+06"}
{"BINDER": "SEQ ID NO 61 (designed binder, FN3 domain) MLPAPKNLVVSRVTEDSARLSWRVESRTFDSFLIQYQESEKVGEAIVLTVPGSERSYDLTGLKPGTEYTVSIYGVVWDTRDNPISNPLSAIFTT", "MEAS_VALUE": "4.9e+06"}
